FYI, the data here is from the Immune Epitope Database (IEDB).

Target: HLA-B*39:01
Experiment: IEDB peptide-MHC binding, purified MHC/competitive/fluorescence; filed as Kd, often an IC50 or EC50 that approximates it; bounds were set here for any values at or beyond the usual limits of such assays
Details: source organism: Brucella suis 1330
endpoint name: Kd

Q: Read the entry `TEWPQLKVA` and write its reported Kd.
Ans: ≥ 20 µM

* * *

Molecular target: HLA-B*35:01
Experiment: IEDB peptide-MHC binding, purified MHC/competitive/radioactivity; filed as Kd, often an IC50 or EC50 that approximates it; bounds were set here for any values at or beyond the usual limits of such assays
Conditions: source organism: Dengue virus 2 Jamaica/1409/1983
Some sequences, each annotated with its measured Kd.
Provide the reading as a plain figure in µM.

// known answers, use as guide
{"columns": ["sequence code", "assay result"],
 "data": [
  ["IPITAAAWY", 0.00619],
  ["FAGPVSQHNY", 0.0384],
  ["FPVSIPITA", 0.0017],
  ["NPITLTAAL", 0.0252],
  ["LPLPWLPGAD", 2.49]
]}

Now for the sequence whose Kd we want.
Q: Answer with the recorded Kd for the sequence listed here: `LPIRYQTPAI`
Ans: 0.0519
